assay-target: canine FcRn complex (FcRn-alpha subunit and beta-microglobulin), His-tagged, biotin labeled (canine)
assay: SPR (Biacore), biotin-FcRn captured on SA surface, IgG flowed over, pH 6, 15 C
Simple rule here: Kd less than 5 nM is met, otherwise not met.

>  <binder>
canine IgGB (65) mAb with mutation A426M (antibody, part only; not given: Variable domains, not shown: another chain or arm of the molecule) constant: ASTTAPSVFPLAPSCGSTSGSTVALACLVSGYFPEPVTVSWNSGSLTSGVHTFPSVLQSSGLYSLSSMVTVPSSRWPSETFTCNVAHPASKTKVDKPVPKRENGRVPRPPDCPKCPAPEMLGGPSVFIFPPKPKDTLLIARTPEVTCVVVDLDPEDPEVQISWFVDGKQMQTAKTQPREEQFNGTYRVVSVLPIGHQDWLKGKQFTCKVNNKALPSPIERTISKARGQAHQPSVYVLPPSREELSKNTVSLTCLIKDFFPPDIDVEWQSNGQQEPESKYRTTPPQLDEDGSYFLYSKLSVDKSRWQRGDTFICMVMHEALHNHYTQESLSHSPGK

>  <assigned-label>
not met

$$$$
>  <binder>
canine IgGB (65) mAb with mutation D312I (antibody, part only; not given: Variable domains, not shown: another chain or arm of the molecule) constant: ASTTAPSVFPLAPSCGSTSGSTVALACLVSGYFPEPVTVSWNSGSLTSGVHTFPSVLQSSGLYSLSSMVTVPSSRWPSETFTCNVAHPASKTKVDKPVPKRENGRVPRPPDCPKCPAPEMLGGPSVFIFPPKPKDTLLIARTPEVTCVVVDLDPEDPEVQISWFVDGKQMQTAKTQPREEQFNGTYRVVSVLPIGHQIWLKGKQFTCKVNNKALPSPIERTISKARGQAHQPSVYVLPPSREELSKNTVSLTCLIKDFFPPDIDVEWQSNGQQEPESKYRTTPPQLDEDGSYFLYSKLSVDKSRWQRGDTFICAVMHEALHNHYTQESLSHSPGK

>  <assigned-label>
not met

$$$$
>  <binder>
canine IgGB (65) mAb with mutation Y436L (antibody, part only; not given: variable domains of unnamed mAb, not shown: another chain or arm of the molecule) constant: ASTTAPSVFPLAPSCGSTSGSTVALACLVSGYFPEPVTVSWNSGSLTSGVHTFPSVLQSSGLYSLSSMVTVPSSRWPSETFTCNVAHPASKTKVDKPVPKRENGRVPRPPDCPKCPAPEMLGGPSVFIFPPKPKDTLLIARTPEVTCVVVDLDPEDPEVQISWFVDGKQMQTAKTQPREEQFNGTYRVVSVLPIGHQDWLKGKQFTCKVNNKALPSPIERTISKARGQAHQPSVYVLPPSREELSKNTVSLTCLIKDFFPPDIDVEWQSNGQQEPESKYRTTPPQLDEDGSYFLYSKLSVDKSRWQRGDTFICAVMHEALHNHLTQESLSHSPGK

>  <assigned-label>
met

$$$$
>  <binder>
canine IgGB (65) mAb with mutation Q311W (antibody, part only; not given: variable domains of unnamed mAb, not shown: another chain or arm of the molecule) constant: ASTTAPSVFPLAPSCGSTSGSTVALACLVSGYFPEPVTVSWNSGSLTSGVHTFPSVLQSSGLYSLSSMVTVPSSRWPSETFTCNVAHPASKTKVDKPVPKRENGRVPRPPDCPKCPAPEMLGGPSVFIFPPKPKDTLLIARTPEVTCVVVDLDPEDPEVQISWFVDGKQMQTAKTQPREEQFNGTYRVVSVLPIGHWDWLKGKQFTCKVNNKALPSPIERTISKARGQAHQPSVYVLPPSREELSKNTVSLTCLIKDFFPPDIDVEWQSNGQQEPESKYRTTPPQLDEDGSYFLYSKLSVDKSRWQRGDTFICAVMHEALHNHYTQESLSHSPGK

>  <assigned-label>
met

$$$$
>  <binder>
canine IgGB (65) mAb with mutation Q311T (antibody, part only; not given: Variable domains, not shown: another chain or arm of the molecule) constant: ASTTAPSVFPLAPSCGSTSGSTVALACLVSGYFPEPVTVSWNSGSLTSGVHTFPSVLQSSGLYSLSSMVTVPSSRWPSETFTCNVAHPASKTKVDKPVPKRENGRVPRPPDCPKCPAPEMLGGPSVFIFPPKPKDTLLIARTPEVTCVVVDLDPEDPEVQISWFVDGKQMQTAKTQPREEQFNGTYRVVSVLPIGHTDWLKGKQFTCKVNNKALPSPIERTISKARGQAHQPSVYVLPPSREELSKNTVSLTCLIKDFFPPDIDVEWQSNGQQEPESKYRTTPPQLDEDGSYFLYSKLSVDKSRWQRGDTFICAVMHEALHNHYTQESLSHSPGK

>  <assigned-label>
not met

$$$$
>  <binder>
canine IgGB (65) mAb with mutation Y436W (antibody, part only; not given: variable domains of unnamed mAb, not shown: another chain or arm of the molecule) constant: ASTTAPSVFPLAPSCGSTSGSTVALACLVSGYFPEPVTVSWNSGSLTSGVHTFPSVLQSSGLYSLSSMVTVPSSRWPSETFTCNVAHPASKTKVDKPVPKRENGRVPRPPDCPKCPAPEMLGGPSVFIFPPKPKDTLLIARTPEVTCVVVDLDPEDPEVQISWFVDGKQMQTAKTQPREEQFNGTYRVVSVLPIGHQDWLKGKQFTCKVNNKALPSPIERTISKARGQAHQPSVYVLPPSREELSKNTVSLTCLIKDFFPPDIDVEWQSNGQQEPESKYRTTPPQLDEDGSYFLYSKLSVDKSRWQRGDTFICAVMHEALHNHWTQESLSHSPGK

>  <assigned-label>
met

$$$$
>  <binder>
canine IgGB (65) mAb with mutation Y436Q (antibody, part only; not given: Variable domains, not shown: another chain or arm of the molecule) constant: ASTTAPSVFPLAPSCGSTSGSTVALACLVSGYFPEPVTVSWNSGSLTSGVHTFPSVLQSSGLYSLSSMVTVPSSRWPSETFTCNVAHPASKTKVDKPVPKRENGRVPRPPDCPKCPAPEMLGGPSVFIFPPKPKDTLLIARTPEVTCVVVDLDPEDPEVQISWFVDGKQMQTAKTQPREEQFNGTYRVVSVLPIGHQDWLKGKQFTCKVNNKALPSPIERTISKARGQAHQPSVYVLPPSREELSKNTVSLTCLIKDFFPPDIDVEWQSNGQQEPESKYRTTPPQLDEDGSYFLYSKLSVDKSRWQRGDTFICAVMHEALHNHQTQESLSHSPGK

>  <assigned-label>
met

$$$$
>  <binder>
canine IgGB (65) mAb with mutation A426I (antibody, part only; not given: Variable domains, not shown: another chain or arm of the molecule) constant: ASTTAPSVFPLAPSCGSTSGSTVALACLVSGYFPEPVTVSWNSGSLTSGVHTFPSVLQSSGLYSLSSMVTVPSSRWPSETFTCNVAHPASKTKVDKPVPKRENGRVPRPPDCPKCPAPEMLGGPSVFIFPPKPKDTLLIARTPEVTCVVVDLDPEDPEVQISWFVDGKQMQTAKTQPREEQFNGTYRVVSVLPIGHQDWLKGKQFTCKVNNKALPSPIERTISKARGQAHQPSVYVLPPSREELSKNTVSLTCLIKDFFPPDIDVEWQSNGQQEPESKYRTTPPQLDEDGSYFLYSKLSVDKSRWQRGDTFICIVMHEALHNHYTQESLSHSPGK

>  <assigned-label>
not met

$$$$
